target: Cytochrome P450 3A4 (Homo sapiens); test: Cytochrome panel assay with activity outcomes; conditions: recombinant CYP, pro-luciferin dealkylation, luminescence, p450-cyp3a4; series mostly up to 57.1 µM
The whole screen tested about 16,000 compounds, of which about 5,100 (32%) were called active. Roughly 25% stayed inconclusive and do not appear here. Some of the results follow.
assay-readout: AC50

Solved cases below.
compound	assay-readout	reported-value
Cc1cc(C=O)c(C)n1-c1ccc(N2CCCCC2)c([N+](=O)[O-])c1	AC50	inactive
CCCSC1=C(C#N)C(c2cccnc2)C(C(=O)OCC)=C(c2ccccc2)N1 (stereo not given)	AC50	11.2 µM (active)
Cn1cc(-c2nc3cnc(N4CCNCC4)nc3n(CCc3ccccc3)c2=O)c2ccccc21	AC50	12.6 µM (active)
CCN[C@@H]1C[C@H](C)S(=O)(=O)c2sc(S(N)(=O)=O)cc21	AC50	inactive
Cc1noc(C)c1C(=O)N1CCC[C@@]2(CCN(C(=O)Nc3cccc(F)c3)C2)C1	AC50	5.01 µM (active)
Cc1noc(C)c1C(=O)N1CCC[C@@]2(CCN(c3ccccc3)C2)C1	AC50	5.01 µM (active)
Cc1cc(C=O)c(C)n1-c1ccc(NC2CCCC2)c([N+](=O)[O-])c1	AC50	4.47 µM (active)
COc1ccc(NC(=O)N2CC3(CCN(C(=O)c4c(C)noc4C)CC3)C2)cc1	AC50	inactive
O=C(NNC(=O)c1ccccc1-n1cccc1)c1ccccc1	AC50	inactive

Switching to the query record.
(Q) Note down AC50 recorded for `Cc1noc(C)c1C(=O)N1CCC[C@@]2(CCN(C(=O)NC(C)C)C2)C1`
(A) inactive
